System: Acinetobacter baumannii DSM 30008
Assay type: cell-based
EXPERIMENTAL CONTEXT: DSM 30008
Where a SMILES comes first, the peptide text is derived from it. Bridges are numbered along the chain shown (N, C = ends). [ ]: non-standard residue; d: D form. Gly(cPent) = N[C@H](C(=O)O)C1CCCC1; dDab = NCC[C@@H](N)C(=O)O; Orn = NCCC[C@H](N)C(=O)O; Dab = NCC[C@H](N)C(=O)O
REPORTED METRIC: Acinetobacter baumannii DSM 30008 MIC (µg/mL)
One number for each entry, in µg/mL.

Given CC(C)[C@@H]1NC(=O)[C@@H]2CSSC[C@H](NC(=O)[C@H](C3CCCC3)NC(=O)[C@H](CCCNC(=N)N)NC(=O)[C@@H](CCN)NC1=O)C(=O)N[C@@H](Cc1ccc(O)cc1)C(=O)N[C@@H](CC(N)=O)C(=O)N[C@@H](CCCN)C(=O)N[C@H](CCN)C(=O)N[C@@H](CCN)C(=O)N[C@@H](Cc1c[nH]c3ccccc13)C(=O)N[C@@H](CO)C(=O)N[C@@H](Cc1ccc(O)cc1)C(=O)N2 [Example 59] (cyclo(CV[dDab]R[Gly(cPent)]CYN[Orn][dDab][Dab]WSY); disulfide 1-6) , state its recorded Acinetobacter baumannii DSM 30008 MIC.
0.75
